Recorded log partition butyl acetate / HPLC water, unbuffered, traces of methanol / DMSO values for a group of compounds are listed next.
assay: shake flask on a mixture of 185; loss from the water phase only; LC-Orbitrap peak areas; details: room
PARAMETER: log partition butyl acetate / HPLC water, unbuffered, traces of methanol / DMSO (log10)

{"columns": ["COMPOUND", "UNIT_NAME", "REPORTED_VALUE"],
 "data": [
  ["c1ccc2[nH]c(-c3cscn3)nc2c1", "log10", 2.093],
  ["CC(C)Nc1nc(N)nc(Cl)n1", "log10", 1.711],
  ["O=C(c1ccccc1)c1ccc(O)cc1O", "log10", 2.111],
  ["CCCOC(=O)c1ccc(C(=O)OCCC)nc1", "log10", 1.476],
  ["CCCCNS(=O)(=O)c1ccccc1", "log10", -0.4267],
  ["CCCCCCOc1cc(C)c(O)c(C)c1C", "log10", -0.05403],
  ["CCCC1COC(Cn2cncn2)(c2ccc(Cl)cc2Cl)O1 (centres unmarked)", "log10", 0.1767],
  ["C[C@H](CCC(=O)O)[C@H]1CC[C@H]2[C@@H]3CC[C@@H]4C[C@H](O)CC[C@]4(C)[C@H]3CC[C@]12C", "log10", 0.9932],
  ["Oc1c(Cl)ccc(Cl)c1Cl", "log10", -1.606],
  ["CCc1nn(C)c(C(=O)NCc2ccc(C(C)(C)C)cc2)c1Cl", "log10", 1.634],
  ["C#CC(C)(C)NC(=O)c1cc(Cl)cc(Cl)c1", "log10", 2.969],
  ["CC(=O)c1ccc2ccccc2c1", "log10", -0.9282],
  ["NC(=O)Nc1ccc(Cl)cc1", "log10", 0.6709],
  ["CC(=O)Nc1ccc(C)cc1C", "log10", 0.7692],
  ["CCCCC(CC)C(=O)OCCOCCOCCOCCOC(=O)C(CC)CCCC (centres unmarked)", "log10", -0.08786],
  ["COC(=O)C(C)N(C(=O)c1ccco1)c1c(C)cccc1C (centres unmarked)", "log10", 2.039],
  ["CCOc1ccc2[nH]cc(C(=O)NCc3ccccc3)c(=O)c2n1", "log10", 2.502],
  ["O=C(OC1CCCCC1)c1ccccc1C(=O)OC1CCCCC1", "log10", 0.2225],
  ["N#CC(c1ccccc1)c1ccccc1", "log10", 0.2978],
  ["O=P(OC(CCl)CCl)(OC(CCl)CCl)OC(CCl)CCl", "log10", 0.4116],
  ["O=C1C=CC(=O)N1c1ccc(Cc2ccc(N3C(=O)C=CC3=O)cc2)cc1", "log10", -0.4086],
  ["CC(C)C1(C)N=C(c2nc3ccccc3cc2C(=O)O)NC1=O (centres unmarked)", "log10", -0.573],
  ["CCCCCCCCCCCC(=O)OCC(O)CO (centres unmarked)", "log10", -0.773],
  ["C=C(C)C(=O)OCCOCCOC(=O)C(=C)C", "log10", -0.01795],
  ["CCC(C)(CC)c1cc(NC(=O)c2c(OC)cccc2OC)on1", "log10", 2.863],
  ["c1coc(-c2nc3ccccc3[nH]2)c1", "log10", 1.189],
  ["O=C(Nc1ccccc1-c1ccc(Cl)cc1)c1cccnc1Cl", "log10", 4.674],
  ["CC(=O)CCc1ccc(OC(C)=O)cc1", "log10", 0.7696],
  ["CCCCC(O)(Cn1cncn1)c1ccc(Cl)cc1Cl (centres unmarked)", "log10", 5.299],
  ["CCCCOC(=O)C(C)Oc1ccc(Oc2ccc(C(F)(F)F)cn2)cc1 (centres unmarked)", "log10", 4.432],
  ["CC(=O)/C=C/c1ccccc1", "log10", -0.04199],
  ["Cc1cc(SCc2sc(-c3ccc(C(F)(F)F)c(F)c3)nc2C)ccc1OCC(=O)O", "log10", 0.8792],
  ["CO/N=C(/C1=NOCCO1)c1ccccc1Oc1ncnc(Oc2ccccc2Cl)c1F", "log10", 2.459],
  ["CC(C)N1C(=O)c2ccccc2NS1(=O)=O", "log10", -1.323],
  ["COC(=O)c1ccc(C(=O)OC)c(C(=O)OC)c1", "log10", 0.7248],
  ["OC(c1ccc(F)cc1)(c1cncnc1)c1ccccc1Cl (centres unmarked)", "log10", 2.226],
  ["CCCCCCC(O)CCCCCCCCCCC(=O)OC (centres unmarked)", "log10", -0.5958],
  ["CCCCc1ccc(O)cc1", "log10", -0.005316],
  ["CCCCNC(=S)NCCCC", "log10", 0.744],
  ["COC(=O)c1sccc1S(N)(=O)=O", "log10", 1.673],
  ["CN(C)c1ccc(Cc2ccc(N(C)C)cc2)cc1", "log10", 1.067],
  ["FC(F)C(F)(F)OCC(Cn1cncn1)c1ccc(Cl)cc1Cl (centres unmarked)", "log10", 1.223],
  ["Cc1cc(C)nc(NS(=O)(=O)c2ccc(N)cc2)n1", "log10", -0.1328],
  ["CC(=O)Oc1ccc(C(C)=O)cc1", "log10", 0.4506],
  ["c1ccc(CCCc2ccncc2)cc1", "log10", -0.4137],
  ["CC(C)c1cccc(O)c1", "log10", -0.382],
  ["Nc1nc(Cl)nc2c1ncn2[C@H]1C[C@H](O)[C@@H](CO)O1", "log10", -0.3544],
  ["CCCCC(CC)COC(=O)c1ccccc1C(=O)O (centres unmarked)", "log10", -0.07834],
  ["CCNC(=O)C1CC(C)CCC1C(C)C (centres unmarked)", "log10", -0.1005],
  ["CCCN(CCC)c1c([N+](=O)[O-])cc(C(C)C)cc1[N+](=O)[O-]", "log10", 0.7238]
]}
